# TARGET SYSTEM: UniProt:P51531
# Sequence (P51531 whole entry): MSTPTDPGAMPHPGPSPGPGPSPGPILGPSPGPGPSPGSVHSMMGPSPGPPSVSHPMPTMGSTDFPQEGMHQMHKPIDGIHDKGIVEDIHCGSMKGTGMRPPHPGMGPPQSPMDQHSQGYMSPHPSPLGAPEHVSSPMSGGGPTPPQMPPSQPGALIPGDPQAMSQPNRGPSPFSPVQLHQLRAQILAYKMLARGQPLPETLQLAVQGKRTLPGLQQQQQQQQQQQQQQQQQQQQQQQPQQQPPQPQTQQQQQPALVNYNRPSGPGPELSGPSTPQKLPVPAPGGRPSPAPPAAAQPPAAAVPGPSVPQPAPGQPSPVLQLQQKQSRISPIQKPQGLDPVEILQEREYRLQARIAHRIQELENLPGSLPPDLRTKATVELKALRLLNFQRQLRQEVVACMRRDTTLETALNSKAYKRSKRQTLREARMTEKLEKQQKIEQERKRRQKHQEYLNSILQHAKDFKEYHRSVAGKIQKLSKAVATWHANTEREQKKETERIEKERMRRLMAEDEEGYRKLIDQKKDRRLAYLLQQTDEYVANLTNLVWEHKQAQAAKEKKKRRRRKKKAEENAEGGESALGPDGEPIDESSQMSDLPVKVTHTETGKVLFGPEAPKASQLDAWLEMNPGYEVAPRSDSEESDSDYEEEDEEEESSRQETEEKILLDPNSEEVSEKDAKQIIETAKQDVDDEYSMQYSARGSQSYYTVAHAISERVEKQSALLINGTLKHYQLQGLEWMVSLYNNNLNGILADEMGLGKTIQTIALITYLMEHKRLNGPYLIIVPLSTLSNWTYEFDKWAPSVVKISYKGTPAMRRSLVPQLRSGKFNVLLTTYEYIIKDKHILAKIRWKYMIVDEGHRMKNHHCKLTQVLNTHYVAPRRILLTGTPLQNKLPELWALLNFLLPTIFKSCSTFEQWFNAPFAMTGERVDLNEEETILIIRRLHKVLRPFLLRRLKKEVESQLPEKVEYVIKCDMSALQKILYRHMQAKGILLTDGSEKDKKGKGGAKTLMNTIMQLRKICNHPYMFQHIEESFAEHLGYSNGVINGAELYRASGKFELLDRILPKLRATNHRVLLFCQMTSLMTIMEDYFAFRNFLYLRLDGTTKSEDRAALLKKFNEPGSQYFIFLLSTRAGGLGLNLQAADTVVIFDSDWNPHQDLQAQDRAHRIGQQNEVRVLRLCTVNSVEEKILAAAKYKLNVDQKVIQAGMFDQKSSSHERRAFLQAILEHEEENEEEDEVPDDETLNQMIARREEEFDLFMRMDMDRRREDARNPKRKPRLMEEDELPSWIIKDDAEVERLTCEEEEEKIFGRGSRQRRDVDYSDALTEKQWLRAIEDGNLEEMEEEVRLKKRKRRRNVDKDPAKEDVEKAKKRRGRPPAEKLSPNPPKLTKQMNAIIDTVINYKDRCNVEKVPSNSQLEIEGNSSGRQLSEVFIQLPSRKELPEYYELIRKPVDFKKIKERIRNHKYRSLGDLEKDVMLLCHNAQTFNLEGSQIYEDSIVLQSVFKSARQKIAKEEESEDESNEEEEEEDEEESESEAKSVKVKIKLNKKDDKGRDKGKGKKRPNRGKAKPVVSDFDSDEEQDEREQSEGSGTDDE
# ASSAY EXPLANATION: MSD SMARCA2 degradation in NCI-H1299 cell line (24 h)
# Assay type: cell-based
# Set-up: HC: NCI-H1299 cells treated with DMSO; host or cells: NCI-H1299
# CONDITIONS USED: NCI-H1299 cells, read-out: SMARCA2 MSD H1299 degradation 24 h: External Abs-DC50
# Protocol: Example 32. MSD SMARCA2 Degradation in […] Cell Line Cell Culture: Cells were cultured in exponential growth phase. Compound Preparation and Treatment: NCI-H1299 cells were seeded into the 96-well plate at 4.0*10^4 cells per 100 ul per well. […] MSD Procedure: The MSD plate was coated with 40 ul cell lysate and incubated at 4° C. overnight. […] MSD plate was washed 3 times with 150 ul 1×TBST per well and 2×MSD reading buffer was added, 150 ul per well, and diluted from 4× with water. […]
Please go through the items and note down their DC50.

• Cc1ncsc1-c1ccc(CNC(=O)[C@@H]2C[C@@H](O)CN2C(=O)[C@@H](NC(=O)[C@H]2CC[C@H](CN3CCC(n4cc(-c5cc(-c6ccccc6O)nnc5N)cn4)CC3)CC2)C(C)(C)C)cc1 [I-403] = 100 to 500 nM

Report DC50 for every entry below.
1. Cn1c(=O)n(C2CCC(=O)NC2=O)c2ccc(CCCCCCCCCCCOc3cccc(CN4CCN(c5cc(-c6ccccc6O)nnc5N)CC4)c3)cc21 (centres unmarked) [I-145]
2. Cn1c(=O)n(C2CCC(=O)NC2=O)c2cccc(CCCCCCCCCN3CCC(Cn4cc(-c5cc(-c6ccccc6O)nnc5N)cn4)CC3)c21 (centres unmarked) [I-151]
3. Cn1c(=O)n(C2CCC(=O)NC2=O)c2cccc(CCCN3CCC(Cn4cc(-c5cc(-c6ccccc6O)nnc5N)cn4)CC3)c21 (centres unmarked) [I-194]
4. O=C1CCC(N2C(=O)c3cccc(OCCc4cn(Cc5cccc(N6C[C@H]7C[C@@H]6CN7/C=C/C(=O)c6ccccc6O)n5)nn4)c3C2=O)C(=O)N1 (some centres unmarked) [I-35]
5. Cn1c(=O)n(C2CCC(=O)NC2=O)c2ccc(CCCCCCCCOc3cccc(CN4CCN(c5cc(-c6ccccc6O)nnc5N)CC4)c3)cc21 (centres unmarked) [I-142]
6. Cn1c(=O)n(C2CCC(=O)NC2=O)c2ccc(CCCCCCCCc3cnc(N4C5CCC4CN(c4cc(-c6ccccc6O)nnc4N)C5)nc3)cc21 (centres unmarked) [I-89]
7. CN(CCCCc1ccc2c(c1)n(C)c(=O)n2C1CCC(=O)NC1=O)Cc1ccc(N2CCN(c3cc(-c4ccccc4O)nnc3N)CC2)cc1 (centres unmarked) [I-122]
8. CC(c1ccc(C(=O)NCCOCCOCCOCCOCCCc2ccc3c(c2)n(C)c(=O)n3C2CCC(=O)NC2=O)cc1)n1cc(-c2cc(-c3ccccc3O)nnc2N)cn1 (centres unmarked) [I-13]

> 1000 nM
100 to 500 nM
< 100 nM
> 1000 nM
> 1000 nM
< 100 nM
> 1000 nM
> 1000 nM

For the 3 compounds below, give their DC50 values.
1. O=C1CCC(N2C(=O)c3cccc(OCCCCc4cn(CCCc5cccc(N6C[C@H]7C[C@@H]6CN7/C=C/C(=O)c6ccccc6O)n5)nn4)c3C2=O)C(=O)N1 (some centres unmarked) [I-71]
2. Cn1c(=O)n(C2CCC(=O)NC2=O)c2ccc(C#CCCc3cn(Cc4cccc(N5C[C@H]6C[C@@H]5CN6/C=C/C(=O)c5ccccc5O)n4)nn3)cc21 (some centres unmarked) [I-59]
3. Cn1c(=O)n(C2CCC(=O)NC2=O)c2ccc(C#CCCCc3cn(Cc4cccc(N5C[C@H]6C[C@@H]5CN6/C=C/C(=O)c5ccccc5O)n4)nn3)cc21 (some centres unmarked) [I-60]

1: > 1000 nM; 2: > 1000 nM; 3: > 1000 nM

I'm hoping you can list DC50 for every compound here, please.
1. Cn1c(=O)n(C2CCC(=O)NC2=O)c2ccc(CCCCCCCOc3cccc(CN4CCN(c5cc(-c6ccccc6O)nnc5N)CC4)c3)cc21 (centres unmarked) [I-104]
2. Cn1c(=O)n(C2CCC(=O)NC2=O)c2ccc(CCCCCOc3cccc(CN4CCN(c5cc(-c6ccccc6O)nnc5N)CC4)c3)cc21 (centres unmarked) [I-102]
3. CC(c1ccc(C(=O)NCCOCCOCCOCCOCCOCCCc2ccc3c(c2)n(C)c(=O)n3C2CCC(=O)NC2=O)cc1)n1cc(-c2cc(-c3ccccc3O)nnc2N)cn1 (centres unmarked) [I-14]
4. CN1C(=O)CCC(n2c(=O)n(C)c3cc(CCCN4CCC(c5cnc(N6C7CCC6CN(c6cc(-c8ccccc8O)nnc6N)C7)nc5)CC4)ccc32)C1=O (centres unmarked) [I-297]
5. Cc1ncsc1-c1ccc(CNC(=O)[C@@H]2C[C@@H](O)CN2C(=O)[C@@H](NC(=O)CN2CCC(Cn3cc(-c4cc(-c5ccccc5O)nnc4N)cn3)CC2)C(C)(C)C)cc1 [I-465]
6. Cc1ncsc1-c1ccc(CNC(=O)[C@@H]2C[C@@H](O)CN2C(=O)[C@@H](NC(=O)CN2CCC[C@@H](Cn3cc(-c4cc(-c5ccccc5O)nnc4N)cn3)C2)C(C)(C)C)cc1 [I-469]
7. O=C(CCCCCCCCOc1ccnc(N2C[C@H]3C[C@@H]2CN3/C=C/C(=O)c2ccccc2O)c1)NCCOCCOCCOCCNc1cccc2c1C(=O)N(C1CCC(=O)NC1=O)C2=O (some centres unmarked) [I-17]
8. Cc1ncsc1-c1ccc(CNC(=O)[C@@H]2C[C@@H](O)CN2C(=O)[C@@H](NC(=O)CN2CCN(Cc3ccc(-c4cc(-c5ccccc5O)nnc4N)cc3)CC2)C(C)(C)C)cc1 [I-473]

1: 100 to 500 nM; 2: > 1000 nM; 3: > 1000 nM; 4: > 1000 nM; 5: > 1000 nM; 6: 100 to 500 nM; 7: > 1000 nM; 8: 100 to 500 nM

Could you tell me DC50 for each of these compounds? They are listed below.
1. CC(c1ccc(C(=O)NCCOCCOCCCc2ccc3c(c2)n(C)c(=O)n3C2CCC(=O)NC2=O)cc1)n1cc(-c2cc(-c3ccccc3O)nnc2N)cn1 (centres unmarked) [I-16]
2. Cn1c(=O)n(C2CCC(=O)NC2=O)c2ccc(CCCOCCCCN3CCN(Cc4ccc(-c5cc(-c6ccccc6O)nnc5N)cc4)CC3)cc21 (centres unmarked) [I-138]
3. CN(CCOCCCc1ccc2c(c1)n(C)c(=O)n2C1CCC(=O)NC1=O)Cc1ccc(N2CCN(c3cc(-c4ccccc4O)nnc3N)CC2)cc1 (centres unmarked) [I-125]

["> 1000 nM", "< 100 nM", "> 1000 nM"]
